pKi: −log10 of the molar value.
// pKi collected for KDR (Homo sapiens, UniProt P35968)
quantity measured: pKi

compound	quantity measured	result
Fc1cccc(-c2cnoc2-c2c[nH]c3ncc(C4=CCC(NCc5ccccc5)CC4)cc23)c1F (centres unmarked)	pKi	6.00 to 6.70
C=Cc1cnc2[nH]cc(-c3oncc3-c3cccc(F)c3F)c2c1	pKi	> 6.70
Fc1cnc2[nH]cc(-c3oncc3-c3cccc(F)c3F)c2c1	pKi	6.00 to 6.70
Fc1cccc(-n2cnnc2-c2c[nH]c3ncc(-c4ccc(CN5CCOCC5)cc4)cc23)c1F	pKi	6.00 to 6.70
Fc1cccc(-c2cnoc2-c2c[nH]c3ncc(-c4c[nH]cn4)cc23)c1F	pKi	6.00 to 6.70
CN(C)C1CC=C(c2cnc3[nH]cc(-c4oncc4-c4cccc(F)c4F)c3c2)CC1 (centres unmarked)	pKi	> 6.70
Fc1c(Cl)cccc1-c1cnoc1-c1c[nH]c2ncccc12	pKi	6.00 to 6.70
CS(=O)(=O)n1ccc2cc(-c3cnc4[nH]cc(-c5oncc5-c5cccc(F)c5F)c4c3)cnc21	pKi	> 6.70
